# Tested on: SF-539 CNS
# Assay procedure: NCI tumour cell line growth inhibition, 48 h
For each record, write down the corresponding TGI.

Item under review: COC(=O)c1sc2c(Cl)c(Cl)sc2c1Cl . Reported TGI?
> 100 µM

Using the record for COc1cc(/C=C/C(=O)/C=C/c2ccc(-n3ccnc3)cc2)ccc1O , report its TGI.
6.31 µM

Given Cc1ccc(/C=C2\CCCC(C(NO)c3ccc(C)cc3)C2=NO)cc1 (stereo not given) , state its recorded TGI.
> 100 µM

Data request, read-out TGI, for CN1CCC(C(=O)Nc2n[nH]c3nnc(-c4ccccc4)cc23)CC1
> 25 µM

For the molecule Cc1ccc(-n2cc(/C(N)=N/O)c3ccccc3c2=O)cc1 , what TGI is on record?
> 100 µM

###

Consider the following compounds; for each one, report its TGI.
# Tested on: DMS 114 small cell lung
# Assay procedure: NCI tumour cell line growth inhibition, 48 h
Report as a plain number; the unit µM is understood.

Field request: TGI | item: O=C(N[C@H]1CC2(C=C(I)C(=O)C(I)=C2)OC1=O)OCc1ccccc1
39.3

What value of TGI has been reported for the following compound? O=C(O)c1cc2ccc(Cl)cc2c(O)c1C1=CCCCC1
63.6

###

# Tested on: HL-60(TB) leukemia
# Assay procedure: NCI tumour cell line growth inhibition, 48 h
I'd be grateful if you could share measured TGI for these entries.

Record CC(C)OC(=O)c1cc(NC(=S)OC(C)C)ccc1Cl : what is its TGI with HL-60(TB) leukemia?
> 31.6 µM

# returns recorded TGI (system: HL-60(TB) leukemia) for CN1CCN(Cc2ccc(C(=S)Nc3ccccc3)s2)CC1
> 100 µM

What TGI appears in the records for this molecule with HL-60(TB) leukemia? c1ccc2[nH]c(-c3cscn3)nc2c1
> 100 µM

###

# Tested on: RPMI-8226 leukemia
# Assay procedure: NCI tumour cell line growth inhibition, 48 h
Measurement label: TGI (µM)
Respond numerically; units are µM and should not be typed.

Entry C[N+](C)([O-])C12CC3CC(CC(C3)C1)C2 has what TGI?
93.6

Which TGI value belongs to O=c1c2ccccc2n2nnc3ccc(NCCNCCO)c1c32 ?
13.7

Request the reported TGI associated with O=C(Nc1ccc(-n2cc(-c3ccncc3)c(-c3ccc(Cl)c(O)c3)n2)cc1)c1ccc(Cl)c(Cl)c1
3.47

State the recorded TGI for this entry: COC1=C(OC)C(=O)C(Cc2c(-c3ccccc3)nc3sc(Cl)cn23)=C(C)C1=O
34.9

Any idea what its TGI is? The molecule is COc1cc(-c2ccc[nH]2)[nH]c1/C=C1\N=C(C)C(C(=O)NC(C)C)=C1C
5.97

Given CCOC(=O)/C(=C/c1cn(C(C)=O)c2ccccc12)P(=O)(OC)OC , state its recorded TGI.
50.7

What value of TGI has been reported for the following molecule? c1ccc2c(c1)ccc1cc3cc(NCCCCNc4ccc5nc6c(ccc7ccccc76)cc5c4)ccc3nc12
1.48

Record request: TGI value, item CCCCCCC1CCCCN1C(c1ccccc1)C(O)c1ccccc1 (stereo unspecified)
6.08

// returns reported TGI for input COc1cc2c(cc1OC)C(Sc1ccc(Cl)cc1)c1c(nc(N)c(C#N)c1N)O2 (stereo unspecified)
4.8

Consider the molecule shown here: CC(=O)O[C@H]1C(=O)[C@@]2(C)C([C@H](OC(=O)c3ccccc3)[C@]3(O)C[C@H](OC(=O)[C@H](O)[C@@H](NC(=O)c4ccc(Cl)cc4)c4ccccc4)C(C)=C1C3(C)C)C1(OC(C)=O)CO[C@@H]1C[C@@H]2O (stereo partly specified) What is its recorded TGI?
11.7

Which measured TGI value corresponds to CCN(CCCl)c1cc(CN(C)C)cc(NC(=O)c2ccc(C(=O)Nc3cccc(N(CCCl)NN)c3)cc2)c1 ?
31.8

Can you share its TGI? I mean this molecule: COc1cc(C(=O)/C=C/c2c(C)n([O-])c3ccc(Cl)cc3[n+]2=O)cc(OC)c1OC
33.4

What measured TGI goes with CC[C@]1(O)C[C@@H]2CN(CCc3c([nH]c4ccccc34)[C@@](C(=O)OC)(c3cc4c(cc3OC)N(C)[C@H]3[C@@](O)(C(=O)OC)[C@H](OC(=O)CCCBr)[C@]5(CC)C=CCN6CC[C@]43[C@@H]65)C2)C1 ?
0.492

Which TGI is listed for COc1ccc(-c2nc3sccn3c2/C=C/C(=O)c2cc(OC)c(OC)c(OC)c2)cc1 ?
7.56

# get_value(readout='TGI', item= CC(C)(C)OC(=O)CC(S(=O)(=O)c1ccccc1)S(=O)(=O)c1ccccc1 )
19.7

Can you look up the measured TGI of Clc1ccc(C2=CC(c3ccccc3)N3C(=N[C@H]4CCCC[C@@H]43)N2)cc1 (stereo partly specified) for me?
7.02
